Source of measurements: paper PMC9119696

biological target: GST-Pin1 (Homo sapiens); test: Competitive fluorescence polarization; format: binding; details: read-out: apparent Ki (FP assay); after 14 h incubation
Sequence (Q13526 whole entry): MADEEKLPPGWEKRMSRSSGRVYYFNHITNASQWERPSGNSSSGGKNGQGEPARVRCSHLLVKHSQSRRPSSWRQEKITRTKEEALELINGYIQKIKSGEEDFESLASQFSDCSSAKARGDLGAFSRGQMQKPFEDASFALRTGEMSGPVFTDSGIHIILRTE
readout kind: Ki
Please answer using a numeric value trailed by its unit.

Need Ki, item CC(C)(C)CN(C(=O)CCl)C1CCS(=O)(=O)C1 (stereo not shown)
17 nM

----------
biological target: UniProt:Q13526; experiment: Chymotrypsin-coupled PPIase activity assay; type: biochemical; details: read-out: apparent Ki (PPIase assay); measured at 12 h
readout kind: Ki (nM)
Note: unit nM is implicit; provide only the numeric part.

# value lookup — system UniProt:Q13526, readout Ki, item CC(C)(C)CN(C(=O)CCl)C1CCS(=O)(=O)C1 (stereo not shown)
211
